All values here come from patent US8129355B2.

target_desc: GAL4 DBD-CfEcR(DEF)/VP16AD-MmRXRE (Choristoneura fumiferana)
assay_details: cell-based
recorded_conditions: maximum fold induction at any concentration relative to that of GS-E ligand
Reported 13B3 Rel Max FI is given for each of the following compounds.
# answer = number (no unit)

Guide cases for 13B3 Rel Max FI, answers given:
- compound: "COc1cccc(C(=O)NC(C)(C(=O)c2ccc(C)cc2)C(C)C)c1C (stereo not drawn) [Example 33]"
  13B3 Rel Max FI: 0.00
- compound: "COc1cccc(C(=O)NC2(C(=O)c3cccc(C)c3)CCSCC2)c1C [Example 26]"
  13B3 Rel Max FI: 0.11
- compound: "COc1cccc(C(=O)NC2(C(=O)c3ccc(F)cc3)CCCCC2)c1C [Example 60]"
  13B3 Rel Max FI: 0.01
- compound: "CCC(CC)(NC(=O)c1cccc(OC)c1C)C(=O)c1cccc(OC)c1 [Example 49]"
  13B3 Rel Max FI: 0.00
- compound: "COc1cccc(C(=O)NC(C)(CC(C)C)C(=O)c2cc(C)cc(C)c2)c1C (stereo not drawn) [Example 55]"
  13B3 Rel Max FI: 0.21

Note: attention shifts to another entry.
Q: Look up 13B3 Rel Max FI of CCC(CC)(NC(=O)c1cccc(OC)c1C)C(=O)c1ccc(F)cc1 [Example 38] and report it.
Ans: 0.00

* * *

target_desc: GAL4 DBD-CfEcR(DEF)/VP16AD-MmRXRE (Choristoneura fumiferana)
Sequence (O77240 1-513): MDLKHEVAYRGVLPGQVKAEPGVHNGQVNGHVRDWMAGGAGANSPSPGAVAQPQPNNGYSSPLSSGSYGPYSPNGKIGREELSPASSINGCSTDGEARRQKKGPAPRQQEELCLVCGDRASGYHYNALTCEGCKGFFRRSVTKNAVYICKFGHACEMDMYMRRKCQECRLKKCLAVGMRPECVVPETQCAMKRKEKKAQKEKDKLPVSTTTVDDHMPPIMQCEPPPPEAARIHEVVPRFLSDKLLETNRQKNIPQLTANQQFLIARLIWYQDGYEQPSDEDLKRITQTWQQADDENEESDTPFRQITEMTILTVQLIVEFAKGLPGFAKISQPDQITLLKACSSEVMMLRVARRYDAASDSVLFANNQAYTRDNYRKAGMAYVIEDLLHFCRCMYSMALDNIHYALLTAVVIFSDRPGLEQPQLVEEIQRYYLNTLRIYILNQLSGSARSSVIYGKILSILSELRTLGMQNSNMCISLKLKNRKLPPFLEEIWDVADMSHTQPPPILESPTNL
assay_details: cell-based
recorded_conditions: maximum fold induction at any concentration relative to that of GS-E ligand
Label n if 13B3 Rel Max FI falls below 0.09; label y in every other case.

Use the examples below as a reference point.
- compound: "COc1cccc(C(=O)NC(C)(Cc2ccccc2)C(=O)c2cc(C)cc(C)c2)c1C (stereo not drawn)"
  class_name: "n"
- compound: "COc1cccc(C(=O)NC2(C(=O)c3cccc(C)c3)CCCCC2)c1C"
  class_name: "y"
- compound: "COc1cccc(C(=O)NC2(C(=O)c3ccc(F)cc3)CCCC2)c1C"
  class_name: "n"

Q: # check: 13B3 Rel Max FI of COc1cccc(C(=O)NC2(C(=O)c3ccccc3)CCCCC2)c1C is greater than or equal to 0.09
Ans: y

Q: # check: 13B3 Rel Max FI of CCC(CC)(NC(=O)c1cccc(OC)c1C)C(=O)c1ccc(F)c(C)c1 is greater than or equal to 0.09
Ans: n

Q: # check: 13B3 Rel Max FI of COc1cccc(C(=O)NC2(C(=O)c3cccc(C)c3)CCC2)c1C is greater than or equal to 0.09
Ans: n

Q: # check: 13B3 Rel Max FI of COc1cccc(C(=O)C2(NC(=O)c3cccc(OC)c3C)CCCCC2)c1 is greater than or equal to 0.09
Ans: y

Q: # check: 13B3 Rel Max FI of CCCCC(=O)C1(NC(=O)c2cccc(OC)c2C)CCCCC1 is greater than or equal to 0.09
Ans: y
